Hi there, I'd appreciate the recorded MIC for every entry that follows.
Record the value in mg/L, omitting the unit from your answer.

[in] Give recorded MIC with Aureobasidium pullulans (APUL) for the following compound: `C[C@H](NC(=O)OCC#CI)C(=O)O`
[out] 32

[in] Give recorded MIC with Aureobasidium pullulans (APUL) for the following compound: `CCCCCCCCOC(=O)[C@H](Cc1ccccc1)NC(=O)OCC#CI`
[out] 125

[in] Give recorded MIC with Aureobasidium pullulans (APUL) for the following compound: `O=C(N[C@@H](Cc1ccccc1)C(=O)O)OCC#CI`
[out] 250

----------
- Tested on: Aureobasidium pullulans (APUL)
- experimentNotes: MIC, broth two-fold serial dilution test
- Assay type: cell-based, ATCC 9348
- testConditions: Aureobasidium pullulans (F); M9G (minimal salts media with glucose); read-out: minimum inhibitory concentration (MIC), APUL
reportedEndpoint: MIC

[in] Can you look up the measured MIC of COC(=O)CNC(=O)OCC#CI [Compound 2] for me?
[out] < 4 µg/mL

[in] Can you look up the measured MIC of O=C(O)CNC(=O)OCC#CI [Compound 1, N-iodopropargyloxycarbonyl glycine] for me?
[out] > 500 µg/mL

[in] Can you look up the measured MIC of COC(=O)[C@H](Cc1ccccc1)NC(=O)OCC#CI [Compound 9] for me?
[out] < 4 µg/mL

[in] Can you look up the measured MIC of O=C(CNC(=O)OCC#CI)OCC#CI [Compound 4] for me?
[out] < 0.12 µg/mL

[in] Can you look up the measured MIC of CCCCCCCCOC(=O)[C@H](C)NC(=O)OCC#CI [Compound 7] for me?
[out] < 63 µg/mL

[in] Can you look up the measured MIC of CCCCCCCCOC(=O)CNC(=O)OCC#CI [Compound 3] for me?
[out] < 4 µg/mL

----------
Hi there, I'd appreciate the recorded MIC for every entry that follows.
- Test system: Pseudomonas fluorescens (PSFL)
- experimentNotes: MIC, broth two-fold serial dilution test
- Type: cell-based, gram negative, ATCC 948
- testConditions: Pseudomonas fluorescens (G-); M9G (minimal salts media with glucose); read-out: minimum inhibitory concentration (MIC), PSFL
Record the value in mg/L, omitting the unit from your answer.

[in] Can you look up the measured MIC of `C[C@H](NC(=O)OCC#CI)C(=O)O` for me?
[out] 125

[in] Can you look up the measured MIC of `O=C(O)CNC(=O)OCC#CI` for me?
[out] 250

[in] Can you look up the measured MIC of `CCCCCCCCOC(=O)CNC(=O)OCC#CI` for me?
[out] 8

[in] Can you look up the measured MIC of `CCCCCCCCOC(=O)[C@H](C)NC(=O)OCC#CI` for me?
[out] 8

[in] Can you look up the measured MIC of `CCCCCCCCOC(=O)[C@H](Cc1ccccc1)NC(=O)OCC#CI` for me?
[out] 32

[in] Can you look up the measured MIC of `COC(=O)CNC(=O)OCC#CI` for me?
[out] 16

[in] Can you look up the measured MIC of `O=C(N[C@@H](Cc1ccccc1)C(=O)O)OCC#CI` for me?
[out] 63

[in] Can you look up the measured MIC of `COC(=O)[C@H](Cc1ccccc1)NC(=O)OCC#CI` for me?
[out] 125

[in] Can you look up the measured MIC of `O=C(CNC(=O)OCC#CI)OCC#CI` for me?
[out] 32

----------
reportedEndpoint: MIC (µg/mL)
Record the value in µg/mL, omitting the unit from your answer.

[in] Give recorded MIC with Aspergillus niger (ANIG) for the following compound: `O=C(N[C@@H](Cc1ccccc1)C(=O)O)OCC#CI`
[out] 250

[in] Give recorded MIC with Aspergillus niger (ANIG) for the following compound: `C[C@H](NC(=O)OCC#CI)C(=O)O`
[out] 125

----------
Hi there, I'd appreciate the recorded MIC for every entry that follows.

[in] Give recorded MIC with Aspergillus niger (ANIG) for the following compound: COC(=O)[C@H](C)NC(=O)OCC#CI [Compound 6]
[out] < 4 µg/mL

[in] Give recorded MIC with Aspergillus niger (ANIG) for the following compound: CCCCCCCCOC(=O)[C@H](Cc1ccccc1)NC(=O)OCC#CI [Compound 10]
[out] 125 µg/mL

[in] Give recorded MIC with Aspergillus niger (ANIG) for the following compound: COC(=O)CNC(=O)OCC#CI [Compound 2]
[out] < 4 µg/mL

[in] Give recorded MIC with Aspergillus niger (ANIG) for the following compound: CCCCCCCCOC(=O)CNC(=O)OCC#CI [Compound 3]
[out] < 4 µg/mL

[in] Give recorded MIC with Aspergillus niger (ANIG) for the following compound: O=C(O)CNC(=O)OCC#CI [Compound 1, N-iodopropargyloxycarbonyl glycine]
[out] > 500 µg/mL

----------
reportedEndpoint: MIC

[in] Give recorded MIC with Aspergillus niger (ANIG) for the following compound: `COC(=O)[C@H](Cc1ccccc1)NC(=O)OCC#CI`
[out] < 4 µg/mL

[in] Give recorded MIC with Aspergillus niger (ANIG) for the following compound: `CCCCCCCCOC(=O)[C@H](C)NC(=O)OCC#CI`
[out] < 4 µg/mL

[in] Give recorded MIC with Aspergillus niger (ANIG) for the following compound: `O=C(CNC(=O)OCC#CI)OCC#CI`
[out] < 0.12 µg/mL
